# System: YT (IL-2 2.5 ng/mL)
# assay.explanation: percent inhibition of viability; higher = more inhibition;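 also: normalised to DMSO-only wells as negative and benzethonium chloride as positive control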
# condition.parameters: 72 h; 10 nM
Entries annotated with measured percent inhibition of viability
Give the value in % but do not write % after it.

Known results for compounds:
compound	property.measured	uom	value.observed
Cc1c(CN2CCN(C(=O)[C@H](C)O)CC2)sc2c(N3CCOCC3)nc(-c3cnc(N)nc3)nc12 [Apitolisib] (max concentration tested 10000 nM)	percent inhibition of viability	%	0.22
NC(=O)NO [Hydroxyurea] (max concentration tested 100000 nM)	percent inhibition of viability	%	-10.8
Oc1nc(-c2ccc(C(F)(F)F)cc2)nc2c1CSCC2 [XAV-939] (max concentration tested 10000 nM)	percent inhibition of viability	%	5.64

Now look at this entry.
Please supply the value of reported percent inhibition of viability for the item CNC(=O)c1ccccc1Sc1ccc2c(/C=C/c3ccccn3)n[nH]c2c1 [Axitinib] (max concentration tested 10000 nM)
-4.48
